PROTOCOL TEXT: Aqueous solubility of avanafil by HPLC at a range of pH values
Assay type: physicochemical
CONDITION LABEL: phosphate buffer, aqueous buffer, thermodynamic from solid; Solution 12, 0.1M KH2PO4, pH 12.0

# SMILES ENTRY, solubility
measured = [
    ("COc1ccc(CNc2nc(N3CCC[C@H]3CO)ncc2C(=O)NCc2ncccn2)cc1Cl", "< 0.05 µg/mL"),
]

---

PROTOCOL TEXT: Aqueous solubility of avanafil by HPLC at a range of pH values
Assay type: physicochemical
CONDITION LABEL: phosphate buffer, aqueous buffer, thermodynamic from solid; Solution 2, 0.1M KH2PO4, pH 2.00

# SMILES ENTRY, solubility, mg/mL
records = [
    ("COc1ccc(CNc2nc(N3CCC[C@H]3CO)ncc2C(=O)NCc2ncccn2)cc1Cl", 35),
]

---

PROTOCOL TEXT: Aqueous solubility of avanafil by HPLC at a range of pH values
Format: physicochemical
CONDITION LABEL: phosphate buffer, aqueous buffer, thermodynamic from solid; Solution 11, 0.1M KH2PO4, pH 11.0

# COMPOUND, solubility (µg/mL)
rows = [
    ("COc1ccc(CNc2nc(N3CCC[C@H]3CO)ncc2C(=O)NCc2ncccn2)cc1Cl [avanafil]", 0.0568),
]

---

PROTOCOL TEXT: Aqueous solubility of avanafil by HPLC at a range of pH values
Type: physicochemical
CONDITION LABEL: phosphate buffer, aqueous buffer, thermodynamic from solid; Solution 1, 0.1M KH2PO4, pH 0.999

# SMILES ENTRY, solubility
measured = [
    ("COc1ccc(CNc2nc(N3CCC[C@H]3CO)ncc2C(=O)NCc2ncccn2)cc1Cl", "> 199 mg/mL"),
]

---

PROTOCOL TEXT: Aqueous solubility of avanafil by HPLC at a range of pH values
Assay type: physicochemical
CONDITION LABEL: water, thermodynamic from solid; ASTM Type II H2O, no buffer

# SMILES ENTRY, UNITS OF MEASURE, solubility
records = [
    ("COc1ccc(CNc2nc(N3CCC[C@H]3CO)ncc2C(=O)NCc2ncccn2)cc1Cl", "µg/mL", 0.139),
]

---

PROTOCOL TEXT: Aqueous solubility of avanafil by HPLC at a range of pH values
Assay type: physicochemical
CONDITION LABEL: sodium acetate buffer, aqueous buffer, thermodynamic from solid; Solution 5, 0.1M NaOAc, pH 5.00

# SMILES ENTRY, solubility [µg/mL]
records = [
    ("COc1ccc(CNc2nc(N3CCC[C@H]3CO)ncc2C(=O)NCc2ncccn2)cc1Cl", 19.5),
]

---

PROTOCOL TEXT: Aqueous solubility of avanafil by HPLC at a range of pH values
Type: physicochemical
CONDITION LABEL: sodium acetate buffer, aqueous buffer, thermodynamic from solid; Solution 4, 0.1M NaOAc, pH 4.00

# SMILES ENTRY, solubility
records = [
    ("COc1ccc(CNc2nc(N3CCC[C@H]3CO)ncc2C(=O)NCc2ncccn2)cc1Cl", "344 µg/mL"),
]
